target.or.test.system: T1, E. coli-expressed recombinant cynomolgus IL-13 (cynomolgus, UniProt Q5I6E4 21-132 (Macaca thibetana entry))
T1 construct: also called cyno IL13 (CA); cIL-13
T1 chain: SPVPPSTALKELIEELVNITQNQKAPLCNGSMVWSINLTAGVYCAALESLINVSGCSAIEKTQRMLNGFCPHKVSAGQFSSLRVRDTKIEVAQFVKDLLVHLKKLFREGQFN
assay.notes: cynomolgus IL-13 binding sandwich ELISA
measured.parameter: EC50 (µg/mL)
Record the value in µg/mL, omitting the unit from your answer.

// worked examples, EC50 included
{"binder": "L1+A1 (antibody, human IgG1, kappa, V domains shown, Humanised 6A1, VH construct A1 and VL construct L1, human gamma1 wild type / kappa constant regions; also called A1L1; humanised anti-IL-13 mAb L1+A1) VH: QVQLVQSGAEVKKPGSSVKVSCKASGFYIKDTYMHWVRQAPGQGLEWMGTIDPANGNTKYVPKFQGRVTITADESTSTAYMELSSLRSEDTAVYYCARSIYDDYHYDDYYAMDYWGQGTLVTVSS VL: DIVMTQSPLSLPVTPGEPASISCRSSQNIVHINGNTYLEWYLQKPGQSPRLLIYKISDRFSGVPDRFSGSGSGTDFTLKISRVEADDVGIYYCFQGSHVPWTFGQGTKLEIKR", "unit.info": "µg/mL", "test.value": 0.021}
{"binder": "L2+A1 (antibody, human IgG1, kappa, V domains shown, Humanised 6A1, VH construct A1 and VL construct L2; also called A1L2) VH: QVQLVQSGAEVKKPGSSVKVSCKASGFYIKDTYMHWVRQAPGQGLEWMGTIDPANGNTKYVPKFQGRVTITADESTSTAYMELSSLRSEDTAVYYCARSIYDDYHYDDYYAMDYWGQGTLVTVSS VL: DIVMTQSPLSLPVTPGEPASISCRSSQNIVHINGNTYLEWYLQKPGQSPRLLIYKISDRFSGVPDRFSGSGSGTDFTLKISRVEADDVGVYYCFQGSHVPWTFGQGTKLEIKR", "unit.info": "µg/mL", "test.value": 0.028}
{"binder": "chimaeric 6A1 (antibody, human IgG1, V domains shown, Parent murine 6A1 V regions on human IgG1/k wild type C regions, expressed in CHO cells; also called 6A1c; 6A1 chimaeric antibody) VH: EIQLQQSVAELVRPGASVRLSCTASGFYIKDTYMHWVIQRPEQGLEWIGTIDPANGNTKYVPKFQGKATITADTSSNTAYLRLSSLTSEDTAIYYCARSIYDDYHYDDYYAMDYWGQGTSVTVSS VL: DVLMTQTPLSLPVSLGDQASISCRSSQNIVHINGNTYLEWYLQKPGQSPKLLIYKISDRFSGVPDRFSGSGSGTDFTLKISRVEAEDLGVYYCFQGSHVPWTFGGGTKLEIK", "unit.info": "µg/mL", "test.value": 0.018}

Lab note: measured EC50 of monoclonal antibody 6A1 (antibody, IgG1, V domains shown, also called 6A1 parental mAb; parental mouse mAb 6A1) VH: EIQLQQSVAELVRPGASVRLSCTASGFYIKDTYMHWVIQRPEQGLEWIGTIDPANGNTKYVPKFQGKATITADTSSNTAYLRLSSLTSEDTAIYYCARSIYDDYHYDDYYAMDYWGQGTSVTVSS VL: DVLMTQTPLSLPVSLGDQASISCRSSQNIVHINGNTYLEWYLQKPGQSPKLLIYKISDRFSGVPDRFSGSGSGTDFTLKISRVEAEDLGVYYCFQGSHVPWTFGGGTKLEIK was 0.039
